target: T1, human MSLN-R2-his protein (human, UniProt Q13421 391-486); assay: ELISA on coated antigen, antibody 0.2 nM
T1 construct: it is put last here; also called human MSLN-R2 protein; hMSLN-R2-his; not shown: His tag
T1 sequence (Q13421 other isoform, or with tags, fused parts or gaps): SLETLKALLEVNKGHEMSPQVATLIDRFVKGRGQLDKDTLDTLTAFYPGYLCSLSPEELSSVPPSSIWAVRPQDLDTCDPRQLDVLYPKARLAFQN
Documented OD450 across a set of binders
Write the number in OD without appending the unit.

# count of solved cases: 2
S009-F7.26.15 (antibody, human IgG1, kappa, V domains shown, Human-murine chimeric antibody, human IgG1 heavy and kappa light constant regions) VH: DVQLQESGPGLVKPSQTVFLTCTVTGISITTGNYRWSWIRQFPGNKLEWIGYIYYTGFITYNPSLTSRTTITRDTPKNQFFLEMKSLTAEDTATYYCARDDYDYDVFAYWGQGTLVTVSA VL: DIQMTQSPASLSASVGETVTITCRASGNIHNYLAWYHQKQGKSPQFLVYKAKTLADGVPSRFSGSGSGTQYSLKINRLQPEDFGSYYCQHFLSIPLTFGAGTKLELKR : 0.05
S009-F7.30.5 (antibody, human IgG1, kappa, V domains shown, Human-murine chimeric antibody, human IgG1 heavy and kappa light constant regions) VH: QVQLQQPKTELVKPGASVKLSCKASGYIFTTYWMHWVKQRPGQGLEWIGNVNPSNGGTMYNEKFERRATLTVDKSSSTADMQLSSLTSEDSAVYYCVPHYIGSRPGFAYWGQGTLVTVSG VL: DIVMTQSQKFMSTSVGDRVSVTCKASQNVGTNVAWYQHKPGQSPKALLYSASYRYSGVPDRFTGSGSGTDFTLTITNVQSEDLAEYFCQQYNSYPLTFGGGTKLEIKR : 0.06

Okay, next one:
Reported OD450 of S009-F7.33.24 (antibody, human IgG1, kappa, V domains shown, Human-murine chimeric antibody, human IgG1 heavy and kappa light constant regions) VH: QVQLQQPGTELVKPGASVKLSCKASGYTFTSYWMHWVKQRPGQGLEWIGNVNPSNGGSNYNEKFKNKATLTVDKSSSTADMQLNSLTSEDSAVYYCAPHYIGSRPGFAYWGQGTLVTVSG VL: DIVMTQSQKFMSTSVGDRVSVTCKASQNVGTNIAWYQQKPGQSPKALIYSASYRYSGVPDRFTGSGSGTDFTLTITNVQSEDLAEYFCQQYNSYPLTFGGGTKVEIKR : 0.06
